System: RKO
TEST_DETAILS: cells
Format: cell-based
CONDITION: basal
# key: entry, value: IC50/EC50, Basal_Viability ATP RKO (assay number 29)
MEASURE_NAME: IC50/EC50, Basal_Viability ATP RKO (assay number 29)

{"columns": ["STRUCTURE_STRING", "RESULT"],
 "data": [
  ["C=CCN1CC[C@]23CCCC[C@H]2[C@H]1Cc1ccc(O)cc13", "> 20 µM"],
  ["COC(=O)Nc1nc2ccc(Sc3ccccc3)cc2[nH]1", "0.001 µM"],
  ["CNS(=O)(=O)CCc1ccc2[nH]cc(C3CCN(C)CC3)c2c1.Cl", "> 20 µM"],
  ["OCCN1CCN(CC/C=C2/c3ccccc3Sc3ccc(C(F)(F)F)cc32)CC1", "0.3178 µM"],
  ["CN1CCN(CCCN2c3ccccc3Sc3ccc(S(=O)(=O)N(C)C)cc32)CC1", "5.9932 µM"],
  ["N#CC(C#N)=Cc1ccc(O)c(O)c1", "3.7756 µM"]
]}

----------
System: endothelial tube formation in co-cultures of ECFCs and ADSCs treated with VEGF
TEST_DETAILS: cells
Type: cell-based, human
# key: entry, value: IC50/EC50, VEGF_ADSC\ECFC Angio CD31 TubeArea (assay number 2)
MEASURE_NAME: IC50/EC50, VEGF_ADSC\ECFC Angio CD31 TubeArea (assay number 2)

{"columns": ["MOLECULE", "MEASURED_ON", "RESULT"],
 "data": [
  ["Cc1c(C(=O)NN2CCCCC2)nn(-c2ccc(Cl)cc2Cl)c1-c1ccc(Cl)cc1 [NCGC00164572-02]", "endothelial tube formation in co-cultures of ECFCs and ADSCs treated with VEGF", "> 10 µM"],
  ["CN(C)/N=N/c1nc[nH]c1C(N)=O [NCGC00091861-07]", "endothelial tube formation in co-cultures of ECFCs and ADSCs treated with VEGF", "4.5862 µM"],
  ["CCCCCCC[N+](CC)(CC)CCCCc1ccc(Cl)cc1.Cc1ccc(S(=O)(=O)[O-])cc1 [NCGC00168464-04]", "endothelial tube formation in co-cultures of ECFCs and ADSCs treated with VEGF", "6.3375 µM"],
  ["CC(=O)Oc1cccc2c1C(=O)c1c(OC(C)=O)cc(C(=O)O)cc1C2=O [NCGC00018274-05]", "endothelial tube formation in co-cultures of ECFCs and ADSCs treated with VEGF", "> 10 µM"],
  ["Cc1cccc(Nc2cc(Cl)nc(SCC(=O)O)n2)c1C [NCGC00014702-15]", "endothelial tube formation in co-cultures of ECFCs and ADSCs treated with VEGF", "> 10 µM"],
  ["O=C1c2ccccc2C(=O)C1C(=O)C(c1ccccc1)c1ccccc1 [NCGC00160553-03]", "endothelial tube formation in co-cultures of ECFCs and ADSCs treated with VEGF", "> 10 µM"],
  ["CC(=O)Oc1ccc(C2(c3ccc(OC(C)=O)cc3)C(=O)Nc3ccccc32)cc1 [NCGC00159420-04]", "endothelial tube formation in co-cultures of ECFCs and ADSCs treated with VEGF", "> 10 µM"]
]}

----------
# key: entry, value: pIC50
MEASURED_ON: hGSK3b (Homo sapiens, UniProt P49841)
Construct: purchased Cerep (LANCE kinase assay platform, contract assay)
Sequence (P49841 whole entry): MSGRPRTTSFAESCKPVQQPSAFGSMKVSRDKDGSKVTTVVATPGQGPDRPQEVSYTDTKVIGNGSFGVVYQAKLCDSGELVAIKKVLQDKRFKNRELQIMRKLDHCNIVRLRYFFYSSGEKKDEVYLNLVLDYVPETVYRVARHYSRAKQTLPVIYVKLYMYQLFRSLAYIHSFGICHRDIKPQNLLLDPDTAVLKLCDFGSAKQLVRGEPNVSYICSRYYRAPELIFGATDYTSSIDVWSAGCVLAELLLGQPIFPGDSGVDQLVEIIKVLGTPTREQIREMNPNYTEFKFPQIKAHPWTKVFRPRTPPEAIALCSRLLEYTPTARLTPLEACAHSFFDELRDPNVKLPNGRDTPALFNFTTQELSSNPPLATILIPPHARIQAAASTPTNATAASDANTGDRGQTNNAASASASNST
TEST_DETAILS: Cerep LANCE kinase assay hGSK3b (S1 assay 34)
Type: biochemical
pIC50: −log10 of the molar value.

{"columns": ["STRUCTURE_STRING", "pIC50"],
 "data": [
  ["Cn1cnc([N+](=O)[O-])c1Sc1ncnc2nc[nH]c12", "< 4.70"],
  ["COc1cc2c(c(OC)c1OC)-c1ccc(OC)c(=O)cc1[C@@H](NC(C)=O)CC2", "< 4.70"]
]}
